- assayed.system: T1, hRAGE-Fc (human, UniProt Q15109 23-342, biotin label in the selections and HTRF assays)
- T1 construct: extracellular domain; also called biotin labeled hRAGE-Fc; Biotin-labeled RAGE-Fc; not shown: Fc part
- T1 sequence (Q15109 23-342): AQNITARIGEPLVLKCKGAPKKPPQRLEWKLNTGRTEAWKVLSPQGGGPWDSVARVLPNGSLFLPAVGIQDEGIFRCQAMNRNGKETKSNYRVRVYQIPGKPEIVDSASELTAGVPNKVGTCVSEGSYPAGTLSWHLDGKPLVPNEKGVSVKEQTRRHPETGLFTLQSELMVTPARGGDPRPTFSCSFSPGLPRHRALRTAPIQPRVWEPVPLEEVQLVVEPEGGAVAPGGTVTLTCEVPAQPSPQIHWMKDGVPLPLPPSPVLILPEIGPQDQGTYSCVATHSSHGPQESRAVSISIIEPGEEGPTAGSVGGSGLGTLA
- run.description: HTRF competition, scFv vs labelled parental XT-M4 (competitor) on hRAGE
pIC50: −log10 of the molar value.
Threshold check on pIC50: at or above 9 gives Condition met, strictly below gives Condition not met.

Solved cases (3 shown):
S2R4A3_5A3 scFv (scFv) scFv: DIQMTQSPSSLSASVGDIVTITCRASQDVGIYVNWFQQKPGKAPRRLIYRATNLADGVPSRFSGSRSSTDFTLTISSLQPEDFATYYCLEFDEHPLTFGGGTKVEIKDGGGSGGGGSGGGGSSEVQLVESGGGLVQPGGSLRLSCAASGFTFNNYWMTWVRQAPGKGLEWVASIDNSGDNTYYPDSVKDRFTISRDNAKNSLYLKMNSLRAEDTAVYYCTRGGDITTGLDYWGQGTLVTVSS : Condition not met
S2R3A1_5H3 scFv (scFv) scFv: DIQMTQSPSSLSASVGDRVTITCRASQDVGIYVNWFQQKPGKAPRRLIDRATNLADGVPSRFSGSRSGTDFTLTISSLQPEDFATYYCLEFDEHPLTFGGGTKVEIKDGGGSGGGGSGGGGSSEVLLVESGGGLVQPGGSLRLSCAASGFTFNNYWMTWVRQAPGKGLEWVASIDNSGDNTYYPDSVKDRFTISRDNAKNSLYLQMNSLRAEDTAVYYCARGGDITTGFDYWGQGTLVTVSS : Condition not met
S1R5A1_3B3 scFv (scFv) scFv: DIQMTQSPSSLSASVGDRVTITCRASQDVGFYVNWFQQKPGKAPRRLIYRATNLADGVPSRFSGSRSGTDFTLTISSLQPEDFATYYCLEFDEHPLTFGGGTKVEIKDGGGSGGGGSGGGGSSEVQLVESGGGLVQPGGSLRLSCAASGFTFNNYWMTWVRQAPGKGLEWVASIDNSGDNTYYPDSVKDRFTISRDNAKNSLYLQMNSLRAEDTAVYYCARGGDITTGLDYWGQGTLVTVSS : Condition not met

Q) Does the binder 3A6 scFv (scFv) scFv: DIQMTQSPSSLSASVGDRVTITCRASQDVGIYVNWFQQKPGKAPRRLIYRATNLADGVPSRFSGSRSGTDFTLTISSLQPEDFATYYCLEFDEHPLTFGGGTKVEIKDGGGSGGGGSGGGGSSEVQLVESGGGLVQPGGSLRLSCAASGFTFNNYWMTWVRQAPGKGLEWVASIDNSGDNTYYPDSVKDRFTISRDNAKNSLYLQMNSLRAEDTAVYYCARGGDILVSLDVWGQGTLVTVSS have recorded pIC50 that is 9 or more?
A) Condition met

Q) Does the binder S2R4A3_10D8 scFv (scFv, also called 10D8 (b)) scFv: DIQMTQSPSSLSASVGDKVTITCRASQDVGFYVNWFQQKPGKAPRRLIYRATNLADGVPSRFSGSRSGTDFTLTISSLQPEDFATYYCLEFDEHPLTFGGGTKVEIKDGGGSGNGGSGGGGSSEVQLVESGGELVQPGGSLRLSCAASGFTFNNYWMTWVRQAPGKGLEWVASIDNSGDNTYYPDSVKDRFTISRDNAKNSLYLQMNSLRAEDTAVYYCARGGDITTGFDYWGQGTLVTVSS have recorded pIC50 that is 9 or more?
A) Condition not met

Q) Does the binder S2R4A3_10H6 scFv (scFv, also called 10H6 (a)) scFv: DIQMTQSPSSLSASVGDGVTITCQASQDVGIYVNWFQQKPGKAPRRLIYRATNLADGVPSRFSGSRSGTDFTLTISSLQPEDFATYYCLEFDEHPLTFGGGTKVEIKNGGGSGGGGSGGGGSSEVQLVESGGGLVQPGGSLRLSCAASGFTFNNYWMTWVRQAPGKGLEWVASIDNSGDNTYYPDSVKDRFTISRDNAKNSLYLQMNSLRAEDTAVYYCARGGDITTGLDYWGQGTLVTESS have recorded pIC50 that is 9 or more?
A) Condition met
